System: Hepatitis C virus
Experiment: Inhibition of HCV subgenomic RNA replication in Huh5-2 cells after 48 hrs by replicon assay
Assay type: functional, organism-based, Hepacivirus hominis
Settings: Huh-5-2, 48 h
Recorded measurements of pEC50, one per entry
Scale for pEC50: -log10 of concentration given in mol/L; no unit attached.

Data request: // lookup pEC50 for CC(=O)N(c1ccc(-c2ccc(Cl)cc2)c(COc2ccc(-c3nc4cc(C(=O)O)ccc4n3C3CCCCC3)c(F)c2)c1)C(C)C
Data returned: 6.80

---

Biological target: RNA-directed RNA polymerase (Hepacivirus hominis)
Assay: Inhibition of HCV 1b BK six His-tagged C-terminal truncated 544 amino acid NS5B RNA dependent RNA polymerase
Design: species or system Hepatitis C virus subtype 1b
Recorded measurements of pIC50, one per entry
Scale for pIC50: -log10 of concentration given in mol/L; no unit attached.

INSERT INTO assay_data (mol, target_system, observed_measurement) VALUES
  ('O=C(O)c1ccc2c(c1)nc(-c1ccc(OCc3cc(C(=O)NCCO)ccc3-c3ccc(Cl)cc3)cc1F)n2C1CCCCC1', 'RNA-directed RNA polymerase (Hepacivirus hominis)', 7.68),
  ('O=C(O)c1ccc2c(c1)nc(-c1ccc(OCc3ccccc3-c3ccccc3)c(F)c1)n2C1CCCCC1', 'RNA-directed RNA polymerase (Hepacivirus hominis)', 6.42),
  ('COc1ccc(-c2ccc(Cl)cc2COc2ccc(-c3nc4cc(C(=O)O)ccc4n3C3CCCCC3)cc2)cc1', 'RNA-directed RNA polymerase (Hepacivirus hominis)', 7.00);

Data request: // lookup pIC50 for CN(C)c1ccc(-c2ccc(Cl)cc2)c(COc2ccc(-c3nc4cc(C(=O)O)ccc4n3C3CCCCC3)cc2)c1
Data returned: 7.20

---

Target: DNA polymerase beta (Homo sapiens, UniProt P06746)
property: IC50

Data request: // lookup IC50 for O=C(O)c1ccc2c(c1)nc(-c1ccc(OCc3cc(N4CCCC4=O)ccc3-c3ccc(Cl)cc3)cc1F)n2C1CCCCC1
Data returned: > 10 µM

---

Biological target: RNA-directed RNA polymerase (Hepacivirus hominis)
Assay: Inhibition of HCV 1a NS5B RNA dependent RNA polymerase
Set-up: species or system Hepatitis C virus subtype 1a
property: IC50 (µM)
Only the number, expressed in µM, is required.

Data request: // lookup IC50 for O=C(O)c1ccc2c(c1)nc(-c1ccc(OCc3cc(N4CCCC4=O)ccc3-c3ccc(Cl)cc3)cc1F)n2C1CCCCC1
Data returned: 0.062

---

Recorded measurements of IC50, one per entry
Target: RNA-directed RNA polymerase (Hepacivirus hominis, UniProt O39930)
Sequence (O39930 whole entry, the tested form may be a part): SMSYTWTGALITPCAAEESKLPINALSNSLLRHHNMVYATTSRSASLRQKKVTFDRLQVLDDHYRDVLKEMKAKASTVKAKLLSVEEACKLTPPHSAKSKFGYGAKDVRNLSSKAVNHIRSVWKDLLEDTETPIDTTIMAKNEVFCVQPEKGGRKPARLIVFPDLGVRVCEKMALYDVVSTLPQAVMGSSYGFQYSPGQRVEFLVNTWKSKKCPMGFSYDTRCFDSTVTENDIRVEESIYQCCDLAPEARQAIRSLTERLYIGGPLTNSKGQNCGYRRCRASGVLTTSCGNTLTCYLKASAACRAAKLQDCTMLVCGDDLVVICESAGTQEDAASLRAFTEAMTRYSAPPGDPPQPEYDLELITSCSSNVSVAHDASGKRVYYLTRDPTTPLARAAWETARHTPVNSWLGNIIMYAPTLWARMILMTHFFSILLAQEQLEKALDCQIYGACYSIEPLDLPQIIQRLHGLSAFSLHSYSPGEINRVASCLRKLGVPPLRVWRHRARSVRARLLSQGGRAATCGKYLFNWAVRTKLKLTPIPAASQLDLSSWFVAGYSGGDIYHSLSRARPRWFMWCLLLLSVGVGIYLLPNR
Assay: Inhibition of HCV 1b BK six His-tagged C-terminal truncated 544 amino acid NS5B RNA dependent RNA polymerase
Set-up: species or system Hepatitis C virus subtype 1b
Only the number, expressed in µM, is required.

INSERT INTO measurements (mol, property, units_of_measure, observed_measurement) VALUES
  ('O=C(O)c1ccc2c(c1)nc(-c1ccc(OCc3cc(Cl)ccc3-c3ccccc3)cc1)n2C1CCCCC1', 'IC50', 'µM', 0.2);

Data request: // lookup IC50 for COc1cc(OCc2ccccc2-c2ccccc2)ccc1-c1nc2cc(C(=O)O)ccc2n1C1CCCCC1
Data returned: 1.1

Data request: Similarly, O=C(O)c1ccc2c(c1)nc(-c1ccc(OCc3cc(Cl)ccc3-c3ccc(Cl)cc3)cc1)n2C1CCCCC1 ?
Data returned: 0.05

Data request: Similarly, Cc1nc(COc2ccc(-c3nc4cc(C(=O)O)ccc4n3C3CCCCC3)cc2)c(-c2ccc(Cl)cc2)o1 ?
Data returned: 0.58

Data request: Similarly, CC(C)NC(=O)c1ccc(-c2ccc(Cl)cc2)c(COc2ccc(-c3nc4cc(C(=O)O)ccc4n3C3CCCCC3)c(F)c2)c1 ?
Data returned: 0.013

Data request: Similarly, CC(=O)c1ccc(-c2ccc(Cl)cc2)c(COc2ccc(-c3nc4cc(C(=O)O)ccc4n3C3CCCCC3)cc2)c1 ?
Data returned: 0.018

---

Test: Therapeutic index, CC50 for viability of Huh5-2 cells/EC50 for inhibition of HCV subgenomic RNA replication
Type: cell-based, Huh-5-2
Settings: human, read-out: Ratio CC50/EC50
Label scheme for selectivity ratio: lower than 30 is rule not met, 30 and above is rule met.

Data request: Assess whether reported selectivity ratio for CCN(C(C)=O)c1ccc(-c2ccc(Cl)cc2)c(COc2ccc(-c3nc4cc(C(=O)O)ccc4n3C3CCCCC3)c(F)c2)c1 sits at 30 or higher.
Data returned: rule met

Data request: Similarly, NS(=O)(=O)c1ccc(-c2ccc(Cl)cc2)c(COc2ccc(-c3nc4cc(C(=O)O)ccc4n3C3CCCCC3)cc2)c1 ?
Data returned: rule not met

Data request: Similarly, CC(C)NC(=O)c1ccc(-c2ccc(Cl)cc2)c(COc2ccc(-c3nc4cc(C(=O)O)ccc4n3C3CCCCC3)c(F)c2)c1 ?
Data returned: rule met

Data request: Similarly, CNC(=O)c1ccc(-c2ccc(Cl)cc2)c(COc2ccc(-c3nc4cc(C(=O)O)ccc4n3C3CCCCC3)cc2)c1 ?
Data returned: rule met

Data request: Similarly, Cc1nc(-c2ccc(Cl)cc2)c(COc2ccc(-c3nc4cc(C(=O)O)ccc4n3C3CCCCC3)cc2)s1 ?
Data returned: rule not met

Data request: Similarly, O=C(O)c1ccc2c(c1)nc(-c1ccc(OCc3cc(C(=O)N4CCC(O)CC4)ccc3-c3ccc(Cl)cc3)cc1F)n2C1CCCCC1 ?
Data returned: rule met

---

Test: Inhibition of mammalian DNA dependent RNA polymerase
property: IC50

Data request: // lookup IC50 for O=C(O)c1ccc2c(c1)nc(-c1ccc(OCc3cc(N4CCCC4=O)ccc3-c3ccc(Cl)cc3)cc1F)n2C1CCCCC1
Data returned: > 10 µM

---

System: Hepatitis C virus
Test: Inhibition of HCV subgenomic RNA replication in Huh5-2 cells after 48 hrs by replicon assay
Type: functional, organism-based, Hepacivirus hominis
Settings: Huh-5-2, 48 h
property: pEC50
Scale for pEC50: -log10 of concentration given in mol/L; no unit attached.

INSERT INTO results (mol, property, observed_measurement) VALUES
  ('O=C(O)c1ccc2c(c1)nc(-c1ccc(OCc3cc(C(=O)NCc4ccccc4)ccc3-c3ccc(Cl)cc3)cc1)n2C1CCCCC1', 'pEC50', 5.96);

Data request: // lookup pEC50 for O=C(O)c1ccc2c(c1)nc(-c1ccc(OCc3cc(Cl)ccc3-c3ccccc3)cc1)n2C1CCCCC1
Data returned: 5.43

Data request: Similarly, O=C(O)c1ccc2c(c1)nc(-c1ccc(OCc3cc(Cl)ccc3-c3cccc(Cl)c3)cc1)n2C1CCCCC1 ?
Data returned: 5.19

Data request: Similarly, COc1ccc(-c2ccc(Cl)cc2COc2ccc(-c3nc4cc(C(=O)O)ccc4n3C3CCCCC3)cc2)cc1 ?
Data returned: 5.62

Data request: Similarly, Cc1nc(-c2ccc(Cl)cc2)c(COc2ccc(-c3nc4cc(C(=O)O)ccc4n3C3CCCCC3)cc2)s1 ?
Data returned: 5.54

Data request: Similarly, N#Cc1ccc(-c2ccc(Cl)cc2COc2ccc(-c3nc4cc(C(=O)O)ccc4n3C3CCCCC3)cc2)cc1 ?
Data returned: 5.89

Data request: Similarly, CN(C)C(=O)Nc1ccc(-c2ccc(Cl)cc2)c(COc2ccc(-c3nc4cc(C(=O)O)ccc4n3C3CCCCC3)c(F)c2)c1 ?
Data returned: 6.21

Data request: Similarly, O=C(O)c1ccc2c(c1)nc(-c1ccc(OCc3cc(C(=O)NCCO)ccc3-c3ccc(Cl)cc3)cc1F)n2C1CCCCC1 ?
Data returned: 6.03

---

Target: DNA polymerase alpha catalytic subunit (Homo sapiens, UniProt P09884)
Sequence (P09884 whole entry): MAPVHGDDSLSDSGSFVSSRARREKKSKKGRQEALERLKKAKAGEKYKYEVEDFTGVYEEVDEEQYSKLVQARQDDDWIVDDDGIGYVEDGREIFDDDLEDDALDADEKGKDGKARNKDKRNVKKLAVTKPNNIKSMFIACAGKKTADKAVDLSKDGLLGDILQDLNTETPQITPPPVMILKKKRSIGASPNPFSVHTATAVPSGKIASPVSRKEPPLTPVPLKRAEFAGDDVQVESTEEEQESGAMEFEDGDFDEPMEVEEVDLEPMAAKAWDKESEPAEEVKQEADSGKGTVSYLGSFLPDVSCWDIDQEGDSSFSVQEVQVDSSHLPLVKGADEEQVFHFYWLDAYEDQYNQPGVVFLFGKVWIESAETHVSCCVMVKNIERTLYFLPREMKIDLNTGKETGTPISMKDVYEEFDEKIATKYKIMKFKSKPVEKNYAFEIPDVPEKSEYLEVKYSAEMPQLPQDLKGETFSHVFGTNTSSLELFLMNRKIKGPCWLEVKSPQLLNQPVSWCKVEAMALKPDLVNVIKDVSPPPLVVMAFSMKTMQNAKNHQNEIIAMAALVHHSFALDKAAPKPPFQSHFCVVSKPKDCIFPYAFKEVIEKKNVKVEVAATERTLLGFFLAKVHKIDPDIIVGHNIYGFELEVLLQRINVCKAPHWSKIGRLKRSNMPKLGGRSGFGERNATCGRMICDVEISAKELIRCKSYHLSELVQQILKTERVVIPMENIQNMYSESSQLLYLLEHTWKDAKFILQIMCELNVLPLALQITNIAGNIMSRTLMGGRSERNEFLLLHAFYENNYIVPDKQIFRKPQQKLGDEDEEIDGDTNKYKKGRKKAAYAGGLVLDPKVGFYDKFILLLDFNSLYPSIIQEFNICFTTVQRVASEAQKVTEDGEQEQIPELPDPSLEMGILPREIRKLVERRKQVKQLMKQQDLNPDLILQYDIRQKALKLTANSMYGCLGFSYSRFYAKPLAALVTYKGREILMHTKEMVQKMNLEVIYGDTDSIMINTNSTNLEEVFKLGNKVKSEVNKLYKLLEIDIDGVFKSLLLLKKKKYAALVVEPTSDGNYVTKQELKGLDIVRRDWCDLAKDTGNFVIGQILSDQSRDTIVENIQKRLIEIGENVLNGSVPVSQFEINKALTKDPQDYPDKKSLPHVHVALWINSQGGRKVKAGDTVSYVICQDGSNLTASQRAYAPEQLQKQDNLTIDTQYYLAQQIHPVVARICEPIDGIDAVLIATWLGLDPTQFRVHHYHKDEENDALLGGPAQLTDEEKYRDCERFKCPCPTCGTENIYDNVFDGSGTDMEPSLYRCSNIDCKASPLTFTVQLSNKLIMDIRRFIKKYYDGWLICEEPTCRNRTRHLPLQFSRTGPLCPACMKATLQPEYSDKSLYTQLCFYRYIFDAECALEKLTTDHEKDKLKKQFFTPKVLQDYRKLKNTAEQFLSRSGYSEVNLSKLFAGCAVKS
Assay: Inhibition of DNA polymerase alpha
pIC50: −log10 of the molar value.
property: pIC50

Data request: // lookup pIC50 for O=C(O)c1ccc2c(c1)nc(-c1ccc(OCc3cc(N4CCCC4=O)ccc3-c3ccc(Cl)cc3)cc1F)n2C1CCCCC1
Data returned: < 5.00

---

Recorded measurements of selectivity ratio, one per entry
Assay: Therapeutic index, CC50 for viability of Huh5-2 cells/EC50 for inhibition of HCV subgenomic RNA replication
Format: cell-based, Huh-5-2
Conditions: human, read-out: Ratio CC50/EC50
// print number alone

Solved cases (3 shown):
INSERT INTO assay_data (mol, observed_measurement) VALUES
  ('CN(C)C(=O)c1ccc(-c2ccc(Cl)cc2)c(COc2ccc(-c3nc4cc(C(=O)O)ccc4n3C3CCCCC3)c(F)c2)c1', 163),
  ('CC(=O)Nc1ccc(-c2ccc(Cl)cc2)c(COc2ccc(-c3nc4cc(C(=O)O)ccc4n3C3CCCCC3)cc2)c1', 18),
  ('CNC(=O)c1ccc(-c2ccc(Cl)cc2)c(COc2ccc(-c3nc4cc(C(=O)O)ccc4n3C3CCCCC3)c(F)c2)c1', 69);

Data request: // lookup selectivity ratio for COc1ccc(-c2ccc(Cl)cc2)c(COc2ccc(-c3nc4cc(C(=O)O)ccc4n3C3CCCCC3)cc2)c1
Data returned: 15

meta.source: ChEMBL document CHEMBL1138950
